Provenance of the data: the supplement of paper PMC10126150

- Test system: ATP;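 note: ATP exposure 15 min at 22 °C before imaging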
- Test: switch fluorescence ratio, 500 uM ATP over buffer (Cy3 cluster intensity, sum of 5 cycles each) (fold (ratio)); higher = stronger signal-on switching upon ATP binding; sequences stand for … in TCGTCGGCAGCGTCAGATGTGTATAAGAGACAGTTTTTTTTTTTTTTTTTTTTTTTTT…TC
- Experimental context: aptamer strand: ATP DNA aptamer (quencher-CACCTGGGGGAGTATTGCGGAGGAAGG + anchor), 100 nM annealed; ATP concentration: 500 uM
I'd appreciate it if you could supply switch fluorescence ratio values for the items below.
Numbers only.

The sequence listed as `AACTTGTCAT` shows switch fluorescence ratio equal to 1

The recorded switch fluorescence ratio for `CACATAGACG` is 1.03

Recorded result, `GCATTTCATG` , switch fluorescence ratio: 0.987

The sequence listed as `CGCGCTACTT` shows switch fluorescence ratio equal to 1.73

Need switch fluorescence ratio for each of these sequences.
1. AAGCCTTGGG
2. AAAGTGGCCC
3. TTGGGGGTTT
4. TCCGAGGTTT
5. AGTAGGGGAC
6. TGTTCACTTT
7. CAAGTTTATT
8. CCAGGGGGAC

// result
1: 1.02; 2: 0.997; 3: 1.02; 4: 1.28; 5: 0.994; 6: 1.04; 7: 1; 8: 1.11

I need switch fluorescence ratio for every entry listed below, if you could help.
1. GCCTGAGATG
2. CAGCAACGTA
3. AGAATGGAGG
4. TTTGGGTCTT
5. CCACCTATCT
6. TCCTAGGCGC
7. TTTTTAGGTC

// result
1: 1.03; 2: 1.05; 3: 0.994; 4: 1.02; 5: 1.09; 6: 1.13; 7: 1.1

====

Hi there, I'd appreciate the recorded switch fluorescence ratio for every entry that follows.
- Tested on: ATP;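 note: ATP exposure 15 min at 22 °C before imaging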
- Test: switch fluorescence ratio, 500 uM ATP over buffer (Cy3 cluster intensity, sum of 5 cycles each) (fold (ratio)); higher = stronger signal-on switching upon ATP binding; sequences stand for … in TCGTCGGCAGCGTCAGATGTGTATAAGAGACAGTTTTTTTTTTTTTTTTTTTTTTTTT…TC
- Experimental context: aptamer strand: ATP DNA aptamer (quencher-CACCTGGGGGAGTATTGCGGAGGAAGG + anchor), 100 nM annealed; ATP concentration: 500 uM
One number for each entry.

`GAAACTGCTG` on ATP gives switch fluorescence ratio = 1.01

Per the reported ATP data, `TGGACTTAGG` has switch fluorescence ratio of 0.987

Form field switch fluorescence ratio for item `GGCCGATTGT` on ATP: 0.962

Item `ACGGGATTTC` was tested on ATP; the reported switch fluorescence ratio is 1.05

Lab entry: ATP assay, sequence `ATTTATTCCT` , switch fluorescence ratio = 1.05

ATP switch fluorescence ratio of `CGTGGTGGAG` is 1

Batch request: switch fluorescence ratio per item, same order as input.
1. CATTCTGTGT
2. ACATCAGAAT
3. ACAGGCCAGC
4. GGAAAAGTTC

// result
1: 1.02; 2: 1.01; 3: 1.01; 4: 1

Value sought for every listed sequence: switch fluorescence ratio.
1. CGGCGAATAT
2. GGATTATTTT
3. GGATACTAGT
4. CCCGGGGGCA

// result
1.02
1
1.04
1.21

Quick request: switch fluorescence ratio for each listed item, please.
1. TGTTGCATCG
2. TGGTTTAAAT
3. TTTTAGAGAT
4. ATTTTGCAAG
5. TATTAAGTGG
6. TTCAATGGCA
7. TTTTGGGATA

// result
1
1.04
1.02
0.994
1.05
1.02
1.03

Provide switch fluorescence ratio for all items below, preserving their order.
1. CCATAGAGAT
2. CGGAACAGCA
3. TTATAGGGCG

// result
1.02
1.08
1.02

====

Give measured switch fluorescence ratio for each item. Keep answers brief.
- Test system: ATP;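 note: ATP exposure 15 min at 22 °C before imaging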
- Test: switch fluorescence ratio, 500 uM ATP over buffer (Cy3 cluster intensity, sum of 5 cycles each) (fold (ratio)); higher = stronger signal-on switching upon ATP binding; sequences stand for … in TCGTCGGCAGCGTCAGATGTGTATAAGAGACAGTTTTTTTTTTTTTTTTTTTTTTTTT…TC
- Experimental context: aptamer strand: ATP DNA aptamer (quencher-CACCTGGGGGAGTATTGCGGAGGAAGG + anchor), 100 nM annealed; ATP concentration: 500 uM
Answers are plain numbers.

These recorded examples may help you get a feel for the data.
Form: sequence = `ACAGGTTAGA` ; switch fluorescence ratio = 1.05

// `CTAGAGGGGG` : switch fluorescence ratio value = 0.971

Note to self: switch fluorescence ratio recorded for `TTTGCCGGAC` was 1.04

Reported switch fluorescence ratio ( `CTGGATTTAA` ) = 1.02

Recorded switch fluorescence ratio (sequence `TAGGGCGCCA` ): 0.995

List the reported switch fluorescence ratio of each sequence below.
1. TTGTTTATCA
2. TTTGAATGCT
3. CCAATTAATC
4. GATATTTGGA
5. TAAAGAGGGG
6. TTTGGGGGAG

// result
1: 0.986; 2: 0.952; 3: 1.03; 4: 0.996; 5: 1; 6: 1.01

====

- Test system: ATP;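 note: ATP exposure 15 min at 22 °C before imaging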
- Test: switch fluorescence ratio, 500 uM ATP over buffer (Cy3 cluster intensity, sum of 5 cycles each) (fold (ratio)); higher = stronger signal-on switching upon ATP binding; sequences stand for … in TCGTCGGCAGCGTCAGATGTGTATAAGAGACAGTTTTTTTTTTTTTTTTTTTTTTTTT…TC
- Experimental context: aptamer strand: ATP DNA aptamer (quencher-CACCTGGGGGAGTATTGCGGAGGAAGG + anchor), 100 nM annealed; ATP concentration: 500 uM
Please go through the items and note down their switch fluorescence ratio.
Numbers only.

Briefly, switch fluorescence ratio measured for `GATGACAGGG` : 1.01

Give me switch fluorescence ratio for each of these sequences, listed below.
1. CTAGTCACGT
2. ATGCAAGGTT
3. TGGGGAAAAC
4. TATACGATTG

// result
[1, 1.01, 1.02, 0.985]

State recorded switch fluorescence ratio for all listed sequences.
1. GATAATCTGT
2. CCAAAATTGG

// result
1: 0.984; 2: 1.02

Okay, here is my list. What is switch fluorescence ratio for each of these?
1. CGGTTAGGCG
2. TTTCCATCAC
3. TTTTTAGAAT

// result
1: 1.06; 2: 1; 3: 0.993

====

I'd be grateful if you could share measured switch fluorescence ratio for these entries.
- Test system: ATP;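 note: ATP exposure 15 min at 22 °C before imaging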
- Test: switch fluorescence ratio, 500 uM ATP over buffer (Cy3 cluster intensity, sum of 5 cycles each) (fold (ratio)); higher = stronger signal-on switching upon ATP binding; sequences stand for … in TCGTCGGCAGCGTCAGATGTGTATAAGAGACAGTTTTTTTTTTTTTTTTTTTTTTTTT…TC
- Experimental context: aptamer strand: ATP DNA aptamer (quencher-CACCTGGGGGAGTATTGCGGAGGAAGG + anchor), 100 nM annealed; ATP concentration: 500 uM
One number for each entry.

Form field switch fluorescence ratio, entry `GATCTGGACA` : 1.01

GET /value?item= `GGTCATGTTG` &field=switch fluorescence ratio returns 0.997

According to the records, this sequence `GGTGTAAGAG` displays switch fluorescence ratio of 0.987

For record `GACGTTGAGG` the listed switch fluorescence ratio is 0.983

Lab book: switch fluorescence ratio of `TTAAATCATA` noted as 0.997

`TGTTGGTTTT` yielded switch fluorescence ratio of 1.02

Provide switch fluorescence ratio values for the following items, in order.
1. TCAGTTGTTG
2. ACTGGGTGGC
3. TATGTGAACT
4. AGTGGTGAGT
5. AAGTTCAGTG
6. TACATTTGGG
7. CGGAAGCGGG
8. CATGACGGTT

// result
1. 1
2. 1.01
3. 0.999
4. 0.977
5. 1.01
6. 0.992
7. 1.02
8. 0.978

====

- System: ATP;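 note: ATP exposure 15 min at 22 °C before imaging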
- Test: switch fluorescence ratio, 500 uM ATP over buffer (Cy3 cluster intensity, sum of 5 cycles each) (fold (ratio)); higher = stronger signal-on switching upon ATP binding; sequences stand for … in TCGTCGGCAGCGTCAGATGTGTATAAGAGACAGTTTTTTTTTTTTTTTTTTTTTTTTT…TC
- Experimental context: aptamer strand: ATP DNA aptamer (quencher-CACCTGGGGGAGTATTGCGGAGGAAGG + anchor), 100 nM annealed; ATP concentration: 500 uM
Reported metric: switch fluorescence ratio
Numbers only.

Recorded switch fluorescence ratio, per entry:
Quick note, switch fluorescence ratio for `ATGTAATTTA` landed at 1

Just so you know, measured switch fluorescence ratio for `GATGGGTTGG` came out at 0.99

The recorded switch fluorescence ratio for entry `CAGGTTTATA` equals 0.993

Quick note, switch fluorescence ratio for `ATTCATTGGG` landed at 0.987

Lookup result for `ATGATGTGGT` ; measured switch fluorescence ratio: 0.992

Note to self: switch fluorescence ratio recorded for `CTCAGAGAAG` was 1.02

The value of switch fluorescence ratio measured for the sequence `ATGGGCTTGC` turned out to be 0.994

The reported switch fluorescence ratio of the sequence `ACGAAATGTT` was 0.988

// switch fluorescence ratio lookup, sequence = `GCAGGGACAA` , result: 1.01

switch fluorescence ratio measured on `ATGATTTCGT` = 0.979

# return switch fluorescence ratio for each item in the list
1. ACTTGGTCGA
2. TTGGGGGGTC
3. GGTAATTGAA
4. GGGTCCCTTG
5. AGGTTAATGT

// result
[0.99, 1, 0.988, 1, 0.996]

Dear colleague, could you send me switch fluorescence ratio for each of the items below? Thanks.
1. GGAATTATGA
2. AGACGTTTAA
3. GTTCTAAAAA
4. TTGTTTAAAA
5. CGGTAGGCGG

// result
[0.995, 1, 1.02, 1.01, 0.971]

Okay, here is my list. What is switch fluorescence ratio for each of these?
1. ATTTTTAGTT
2. TTAATAGTCA
3. TCGGTGTCGG
4. AAAAACAGCG
5. AGGAGGCGGG
6. TGCTGCTCGG
7. TACAAGGTCA
8. GGTGTTAGG

// result
0.991
1
0.98
1.02
0.99
0.973
1.01
1
